# study system: ARAF/MEK protein complex (Homo sapiens, UniProt P10398+Q02750)
# Sequence (P10398 whole entry): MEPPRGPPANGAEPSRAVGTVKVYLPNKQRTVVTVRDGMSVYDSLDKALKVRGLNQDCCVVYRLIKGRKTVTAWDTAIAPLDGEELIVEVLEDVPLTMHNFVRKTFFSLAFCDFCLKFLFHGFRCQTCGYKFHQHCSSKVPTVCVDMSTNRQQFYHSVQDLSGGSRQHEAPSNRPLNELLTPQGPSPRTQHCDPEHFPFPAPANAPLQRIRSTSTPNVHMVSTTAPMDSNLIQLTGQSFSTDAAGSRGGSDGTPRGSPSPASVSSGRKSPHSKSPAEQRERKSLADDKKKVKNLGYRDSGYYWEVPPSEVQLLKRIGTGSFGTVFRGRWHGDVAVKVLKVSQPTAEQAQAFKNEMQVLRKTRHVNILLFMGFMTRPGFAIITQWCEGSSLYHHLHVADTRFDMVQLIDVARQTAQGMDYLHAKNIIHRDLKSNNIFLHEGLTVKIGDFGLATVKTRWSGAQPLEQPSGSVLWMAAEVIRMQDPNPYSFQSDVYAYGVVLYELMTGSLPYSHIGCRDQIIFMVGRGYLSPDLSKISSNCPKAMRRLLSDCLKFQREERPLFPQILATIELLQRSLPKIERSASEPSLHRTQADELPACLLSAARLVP
# Sequence (Q02750 whole entry): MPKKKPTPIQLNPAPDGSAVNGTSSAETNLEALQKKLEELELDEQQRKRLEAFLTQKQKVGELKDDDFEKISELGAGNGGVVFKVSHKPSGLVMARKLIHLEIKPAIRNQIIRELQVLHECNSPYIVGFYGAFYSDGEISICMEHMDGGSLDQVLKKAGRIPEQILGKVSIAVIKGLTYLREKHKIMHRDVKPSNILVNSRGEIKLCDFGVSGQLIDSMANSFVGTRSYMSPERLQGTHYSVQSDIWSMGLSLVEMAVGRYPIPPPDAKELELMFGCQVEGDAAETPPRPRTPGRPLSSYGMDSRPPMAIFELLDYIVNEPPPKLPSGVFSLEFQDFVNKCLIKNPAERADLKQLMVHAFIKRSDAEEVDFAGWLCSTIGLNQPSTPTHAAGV
# test details: Mass spectrometry-based assay for covalent labeling of ARAF
# Format: binding
# particulars: ARAF/MEK protein complex incubated at room temperature for 2 hours with inhibitor at concentration ratio 1:10; LC-MS of denatured protein
Threshold rule: % labeling (covalent labeling of ARAF) greater than or equal to 50% is Yes; below that, No.

query: Reported % labeling (covalent labeling of ARAF) at or above 50%? C=CC(=O)Nc1ccc(Cn2cnc3c(F)c(Nc4ccc(Br)cc4Cl)c(C(=O)OC)cc32)cc1 [Example 9]
result: No

***
query: Reported % labeling (covalent labeling of ARAF) at or above 50%? Cc1c(Cc2cccc(NC(=O)CCl)c2F)c(=O)oc2cc(Oc3ncccn3)ccc12 [Example 4]
result: Yes

query: Reported % labeling (covalent labeling of ARAF) at or above 50%? C=C(F)C(=O)Nc1cccc(-n2c(=O)n(C3CC3)c(=O)c3c(Nc4ccc(I)cc4F)n(C)c(=O)c(C)c32)c1 [Example 12]
result: Yes

query: Reported % labeling (covalent labeling of ARAF) at or above 50%? C=CC(=O)Nc1cccc(Cc2c(C)c3ccc(Oc4ncccn4)cc3oc2=O)c1F [Example 3]
result: Yes

query: Reported % labeling (covalent labeling of ARAF) at or above 50%? Cc1c(=O)n(C)c(Nc2ccc(I)cc2F)c2c(=O)n(C3CC3)c(=O)n(-c3cccc(NC(=O)CCl)c3)c12 [Example 11]
result: Yes

query: Reported % labeling (covalent labeling of ARAF) at or above 50%? C=CC(=O)Nc1ccc(CNC(=O)c2ccc(F)c(F)c2Nc2ccc(I)cc2F)cc1 [Example 5]
result: No
